The reported measurements were obtained from ChEMBL document CHEMBL1149655.

molecular target: Glucocorticoid receptor (Homo sapiens, UniProt P04150)
Sequence (P04150 whole entry): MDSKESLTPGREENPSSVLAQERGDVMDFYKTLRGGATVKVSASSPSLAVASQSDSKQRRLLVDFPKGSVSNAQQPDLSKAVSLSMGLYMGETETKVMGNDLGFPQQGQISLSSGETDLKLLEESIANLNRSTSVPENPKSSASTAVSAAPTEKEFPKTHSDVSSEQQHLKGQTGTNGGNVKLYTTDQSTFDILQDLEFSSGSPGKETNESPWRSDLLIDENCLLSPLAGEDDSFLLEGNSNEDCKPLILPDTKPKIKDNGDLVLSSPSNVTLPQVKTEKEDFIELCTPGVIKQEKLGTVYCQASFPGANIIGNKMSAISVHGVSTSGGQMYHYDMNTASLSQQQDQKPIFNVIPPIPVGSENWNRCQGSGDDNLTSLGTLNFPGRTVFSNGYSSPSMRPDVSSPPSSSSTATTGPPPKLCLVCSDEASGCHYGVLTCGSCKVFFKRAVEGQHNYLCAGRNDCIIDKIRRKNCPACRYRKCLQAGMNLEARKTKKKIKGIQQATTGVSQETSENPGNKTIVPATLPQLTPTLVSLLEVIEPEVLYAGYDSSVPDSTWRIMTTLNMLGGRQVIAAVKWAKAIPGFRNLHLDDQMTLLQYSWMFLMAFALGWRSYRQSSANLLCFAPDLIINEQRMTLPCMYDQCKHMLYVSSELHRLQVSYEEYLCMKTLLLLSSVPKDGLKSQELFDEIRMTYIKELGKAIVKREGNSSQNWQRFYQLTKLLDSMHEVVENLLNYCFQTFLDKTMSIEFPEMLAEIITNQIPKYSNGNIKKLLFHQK
pIC50: −log10 of the molar value.
measurementLabel: pIC50

compound	systemTested	measurementLabel	resultQualifier	assayResult
CCn1nc(C)c(Br)c1C(=O)NCC(O)(CC1(C)CCCc2ccccc21)C(F)(F)F (stereo not given)	Glucocorticoid receptor (Homo sapiens, UniProt P04150)	pIC50	<	6.00
CCC1(CC(O)(CNC(=O)c2cnn(-c3ccc(F)cc3F)c2N)C(F)(F)F)CCCc2ccccc21 (stereo in doubt; 22D1E1)	Glucocorticoid receptor (Homo sapiens, UniProt P04150)	pIC50	=	8.19
CC1(CC(O)(CNC(=O)c2cnn(-c3ccccc3)c2N)C(F)(F)F)CCCc2ccccc21 (stereo in doubt; 19D1E1)	Glucocorticoid receptor (Homo sapiens, UniProt P04150)	pIC50	=	7.77
CCC1(CC(O)(CNC(=O)c2cnn(-c3ccc(F)cc3F)c2N)C(F)(F)F)CCCc2ccccc21 (stereo in doubt; 22D1E2)	Glucocorticoid receptor (Homo sapiens, UniProt P04150)	pIC50	=	8.35
Nc1c(C(=O)NCC(O)(CC2(c3cc(F)ccc3Cl)CCC2)C(F)(F)F)cnn1-c1ccccc1 (stereo in doubt; 24E1)	Glucocorticoid receptor (Homo sapiens, UniProt P04150)	pIC50	=	8.43
Cc1c(C(=O)NCC(O)(CC2(C)CCCc3ccccc32)C(F)(F)F)cnn1-c1ccccc1 (stereo in doubt; 18D1)	Glucocorticoid receptor (Homo sapiens, UniProt P04150)	pIC50	=	7.08
CCC1(CC(O)(CNC(=O)c2cnn(-c3ccc(F)cc3)c2N)C(F)(F)F)CCCc2ccccc21 (stereo in doubt; 21D1E2)	Glucocorticoid receptor (Homo sapiens, UniProt P04150)	pIC50	=	8.52
Nc1c(C(=O)NCC(O)(CC2(c3cc(F)ccc3Cl)CCC2)C(F)(F)F)cnn1-c1ccccc1 (stereo in doubt; 24E2)	Glucocorticoid receptor (Homo sapiens, UniProt P04150)	pIC50	=	7.88
CCC1(CC(O)(CNC(=O)c2cnn(-c3ccccc3)c2N)C(F)(F)F)CCCc2ccccc21 (stereo not given)	Glucocorticoid receptor (Homo sapiens, UniProt P04150)	pIC50	=	8.78
CCC1(CC(O)(CNC(=O)c2cnn(-c3ccc(F)cc3)c2N)C(F)(F)F)CCCc2ccccc21 (stereo in doubt; 21D1E1)	Glucocorticoid receptor (Homo sapiens, UniProt P04150)	pIC50	=	8.44
Cc1c(C(=O)NCC(O)(CC2(C)CCCc3ccccc32)C(F)(F)F)cnn1-c1ccccc1 (stereo in doubt; 18D1E1)	Glucocorticoid receptor (Homo sapiens, UniProt P04150)	pIC50	=	7.31
Cc1c(S(=O)(=O)NCC(O)(CC2(C)CCCc3ccccc32)C(F)(F)F)cnn1-c1ccccc1 (stereo in doubt; 17D2E2)	Glucocorticoid receptor (Homo sapiens, UniProt P04150)	pIC50	<	6.00
Nc1c(C(=O)NCC(O)(CC2(C3CCCC3)CCCc3ccccc32)C(F)(F)F)cnn1-c1ccc(F)cc1F (stereo in doubt; 23D1E2)	Glucocorticoid receptor (Homo sapiens, UniProt P04150)	pIC50	=	7.52
CC1(CC(O)(CNC(=O)c2cnn(-c3ccccc3)c2N)C(F)(F)F)CCCc2ccccc21 (stereo in doubt; 19D1E2)	Glucocorticoid receptor (Homo sapiens, UniProt P04150)	pIC50	=	8.23
Nc1c(C(=O)NCC(O)(CC2(C3CCCC3)CCCc3ccccc32)C(F)(F)F)cnn1-c1ccc(F)cc1F (stereo in doubt; 23D1E1)	Glucocorticoid receptor (Homo sapiens, UniProt P04150)	pIC50	=	8.07
